Recorded values, source ChEMBL document CHEMBL1777688.

Attribute: inhibition
target: Glutamate NMDA receptor; GRIN1/GRIN2A (Homo sapiens) (UniProt Q05586+Q12879); assay: Blockade of human recombinant NR1/NR2A expressed in xenopus oocytes assessed as inhibition of L-glutamate/glycine-induced whole-cell current at 10 uM at holding potential of -60 mV by electrophysiological assay relative to control; format: cell-based; conditions: Oocyte
Could you give me the number in %? Just the number is fine.

Some solved cases for reference:
>  <MOLECULAR STRING>
CC(=O)N[C@@H](CCCCN=C(N(C)C)N(C)C)C(=O)N[C@@H](Cc1c(Sc2ccccc2[N+](=O)[O-])[nH]c2ccccc12)C(N)=O

>  <MEASURED PARAMETER>
inhibition

>  <UNIT DESCRIPTOR>
%

>  <VALUE REPORTED>
6.1

$$$$
>  <MOLECULAR STRING>
NC(=O)[C@H](Cc1c(Sc2ccccc2[N+](=O)[O-])[nH]c2ccccc12)NC(=O)[C@@H](N)CCCN=C(N)N

>  <MEASURED PARAMETER>
inhibition

>  <UNIT DESCRIPTOR>
%

>  <VALUE REPORTED>
7.7

$$$$

Which inhibition reading was recorded for the compound CC(=O)N[C@@H](CCN)C(=O)N[C@@H](Cc1c(Sc2ccccc2[N+](=O)[O-])[nH]c2ccccc12)C(N)=O ?
27.2

inhibition lookup needed for CC(=O)N[C@@H](CN)C(=O)N[C@@H](Cc1c(Sc2ccccc2[N+](=O)[O-])[nH]c2ccccc12)C(N)=O , thanks.
27

====

target: Transient receptor potential cation channel subfamily V member 1 (Rattus norvegicus) (UniProt O35433); experiment: Blockade of rat recombinant TRPV1 expressed in xenopus oocytes assessed as inhibition of capsaicin-induced whole-cell current at 10 uM at holding potential of -60 mV by electrophysiological assay relative to control; assay type: cell-based; details: Oocyte
Sequence (O35433 whole entry): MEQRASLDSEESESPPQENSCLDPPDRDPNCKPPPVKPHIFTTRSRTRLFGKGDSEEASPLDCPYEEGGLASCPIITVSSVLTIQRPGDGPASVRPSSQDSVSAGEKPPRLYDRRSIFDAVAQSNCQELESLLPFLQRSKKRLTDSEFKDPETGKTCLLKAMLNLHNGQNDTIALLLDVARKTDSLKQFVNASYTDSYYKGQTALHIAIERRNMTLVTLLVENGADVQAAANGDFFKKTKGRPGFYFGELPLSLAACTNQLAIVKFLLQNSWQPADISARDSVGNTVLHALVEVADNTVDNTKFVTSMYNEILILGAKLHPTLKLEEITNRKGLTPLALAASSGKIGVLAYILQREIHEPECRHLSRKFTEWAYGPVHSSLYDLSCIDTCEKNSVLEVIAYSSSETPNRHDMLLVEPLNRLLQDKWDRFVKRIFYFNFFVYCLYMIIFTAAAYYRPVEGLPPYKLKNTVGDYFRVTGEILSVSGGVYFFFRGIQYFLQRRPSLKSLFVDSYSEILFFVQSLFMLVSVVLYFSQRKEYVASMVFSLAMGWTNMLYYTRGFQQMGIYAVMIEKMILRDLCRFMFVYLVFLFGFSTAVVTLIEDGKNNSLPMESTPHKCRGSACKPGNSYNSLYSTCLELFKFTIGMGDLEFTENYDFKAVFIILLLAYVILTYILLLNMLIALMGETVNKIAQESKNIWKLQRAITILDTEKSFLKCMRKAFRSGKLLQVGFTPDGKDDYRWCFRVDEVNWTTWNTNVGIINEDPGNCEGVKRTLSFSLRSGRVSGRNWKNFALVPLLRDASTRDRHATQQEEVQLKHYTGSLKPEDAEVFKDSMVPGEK
MEASURED PARAMETER: inhibition
Could you kindly put the unit after your number?

Consider the reported inhibition for these compounds:
>  <MOLECULAR STRING>
NCCCC[C@@H]1NC(=O)N([C@@H](Cc2c(Sc3ncccc3[N+](=O)[O-])[nH]c3ccccc23)C(N)=O)C1=O

>  <VALUE REPORTED>
24.6%

$$$$
>  <MOLECULAR STRING>
NC(=O)[C@H](Cc1c(Sc2ccccc2[N+](=O)[O-])[nH]c2ccccc12)N1C(=O)N[C@@H](CN=C(N2CCCC2)N2CCCC2)C1=O

>  <VALUE REPORTED>
51.3%

$$$$
>  <MOLECULAR STRING>
NCCCC[C@@H]1NC(=O)N([C@@H](Cc2c(Sc3ccccc3[N+](=O)[O-])[nH]c3ccccc23)C(N)=O)C1=O

>  <VALUE REPORTED>
15.4%

$$$$

Which inhibition is reported for this compound? NC(=O)[C@H](Cc1c(Sc2ccccc2[N+](=O)[O-])[nH]c2ccccc12)NC(=O)[C@H](CCCCN=C(N1CCCC1)N1CCCC1)N=C(N1CCCC1)N1CCCC1
97.2%

Given C[N+](C)(C)CCCC[C@@H]1NC(=O)N([C@@H](Cc2c(Sc3ncccc3[N+](=O)[O-])[nH]c3ccccc23)C(N)=O)C1=O , state its recorded inhibition.
19.9%

Look at this compound and give its reported inhibition. CC(=O)N[C@@H](CCCCN)C(=O)N[C@@H](Cc1c(Sc2ccccc2[N+](=O)[O-])[nH]c2ccccc12)C(N)=O
14.3%

Given the entry CC(=O)N[C@@H](CCCCN=C(N1CCCC1)N1CCCC1)C(=O)N[C@@H](Cc1c(Sc2ncccc2[N+](=O)[O-])[nH]c2ccccc12)C(N)=O , report its measured inhibition.
16.6%
